MEASURED TARGET: PAR1 (Homo sapiens (Human), UniProt P25116)
Sequence (P25116 22-425): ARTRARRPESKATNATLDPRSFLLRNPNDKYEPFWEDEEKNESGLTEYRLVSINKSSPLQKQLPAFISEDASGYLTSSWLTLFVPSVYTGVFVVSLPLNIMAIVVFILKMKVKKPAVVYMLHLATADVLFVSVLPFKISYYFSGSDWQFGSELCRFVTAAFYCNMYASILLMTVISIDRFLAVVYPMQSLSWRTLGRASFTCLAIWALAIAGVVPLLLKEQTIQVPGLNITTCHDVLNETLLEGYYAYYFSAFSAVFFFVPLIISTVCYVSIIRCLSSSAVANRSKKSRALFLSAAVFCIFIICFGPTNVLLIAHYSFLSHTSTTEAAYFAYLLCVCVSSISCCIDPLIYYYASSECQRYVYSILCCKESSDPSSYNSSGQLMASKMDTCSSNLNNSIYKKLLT
EXPERIMENTAL DETAILS: Inhibition of PAR1-mediated platelet aggregation induced by TRAP
Assay type: cell-based
CONDITIONS USED: TRAP-induced aggregation of washed platelets from healthy volunteer donors, 96-well format
Where a name gives a salt, the structure may show the parent alone.
QUANTITY: log10 of IC50 (log10 of the value in nM)
// units: nM (pre-log); metric: IC50; scale: log10

// known answers, use as guide
>>> value_measured("CCOc1ccc2nn(CC(=O)c3cc(N4CCOCC4)c(OC)c(C(F)(F)F)c3)c(=N)n2n1 [Example 5, trifluoroacetic acid salt]")
3.93
>>> value_measured("CCN(CC)c1cc(C)c2nn(CC(=O)c3cc(OC)cc(S(F)(F)(F)(F)F)c3)c(=N)n2n1 [Example 108, trifluoroacetic acid salt]")
1.20
>>> value_measured("CC(C)(C)c1cc(C(=O)Cn2nc3ccc(Cl)nn3c2=N)cc(C(C)(C)C)c1O")
3.20
>>> value_measured("CCOc1ccc2nn(CC(=O)c3cc(N4CCOCC4)c(OC)c(C(C)(C)C)c3)c(=N)n2n1 [Example 7, trifluoroacetic acid salt]")
2.20

Now turn to the next molecule.
The value of log10 of IC50 recorded for CCC(CC)Oc1ccc2nn(CC(=O)c3cc(NC)cc(S(F)(F)(F)(F)F)c3)c(=N)n2n1 [Example 16, trifluoroacetic acid salt] when tested on PAR1 (Homo sapiens (Human), UniProt P25116) reads 2.10

----------
MEASURED TARGET: PAR1 (Homo sapiens (Human))
EXPERIMENTAL DETAILS: Inhibition of PAR1-mediated platelet aggregation induced by TRAP
Format: cell-based
CONDITIONS USED: TRAP-induced aggregation of washed platelets from healthy volunteer donors, 96-well format
Counter-ions that a name gives are not always drawn.
QUANTITY: pIC50
# pIC50 is unitless: minus log10 of the molar concentration; print number only

>>> value_measured("CCOc1ccc2nn(CC(=O)c3cc(NC(C)=O)cc(S(F)(F)(F)(F)F)c3)c(=N)n2n1 [Example 1, trifluoroacetic acid salt]")
6.19
>>> value_measured("CCC(CC)Oc1cc(C)c2nn(CC(=O)c3cc(COCCCO)cc(C(C)(C)C)c3)c(=N)n2n1 [Example 77, hydrochloride]")
8.05
>>> value_measured("CCC(CC)Oc1cc(C)c2nn(CC(=O)c3cc(OCCCO)cc(C(C)(C)C)c3)c(=N)n2n1 [Example 90, hydrochloride]")
7.92
>>> value_measured("CCC(CC)Oc1nn2c(=N)n(CC(=O)c3cc(OC)cc(S(F)(F)(F)(F)F)c3)nc2c(C)c1C [Example 85, trifluoroacetic acid salt]")
7.23
>>> value_measured("COCC(COC)Oc1cc(C)c2nn(CC(=O)c3cc(OCCO)cc(C(C)(C)C)c3)c(=N)n2n1 [Example 98, hydrochloride]")
6.48

Switching to the query record.
Record summary for CCC(CC)Oc1cc(C)c2nn(CC(=O)c3cc(OCCOC)cc(C(C)(C)C)c3)c(=N)n2n1 [Example 66, hydrochloride] : reported pIC50 = 7.60

----------
MEASURED TARGET: PAR1 (Homo sapiens (Human))
EXPERIMENTAL DETAILS: PAR1 binding test (radioligand displacement, membrane preparation)
CONDITIONS USED: human PAR1 expressed in High Five insect cell membranes; radioligand 20 nM; read-out: Inhibition of binding IC50
Counter-ions that a name gives are not always drawn.
Item-by-item account of pIC50
Reminder that pIC50 is minus the log10 of a molar concentration.

A selection of reference data follows.
>>> value_measured("Cc1cc(OCC2(C)COC2)nn2c(=N)n(CC(=O)c3cc(OCCO)cc(C(C)(C)C)c3)nc12 [Example 236, hydrobromide]")
5.85
>>> value_measured("CCC(CC)Oc1cc(C)c2nn(CC(=O)c3cc(OCCO)c(OC)c(C(C)(C)C)c3)c(=N)n2n1 [Example 117, hydrochloride]")
7.01
>>> value_measured("CCNC(=O)c1nn2/c(=N/C)n(CC(=O)c3cc(OCCCO)c(OC)c(C(C)(C)C)c3)nc2c(C)c1C [Example 239, hydrochloride]")
6.95
>>> value_measured("CCOc1nn2/c(=N/C)n(CC(=O)c3cc(OCCO)cc(C(C)(C)C)c3)nc2c(C)c1C [Example 163, hydrochloride]")
6.44
>>> value_measured("CCC(CC)Oc1cc(C)c2nn(CC(=O)c3cc(OCCO)cc(C(C)(C)C)c3)c(=N)n2n1 [Example 89, hydrochloride]")
6.97
>>> value_measured("COc1c(OCCCCO)cc(C(=O)Cn2nc3c(C)cc(OCC4CC4)nn3c2=N)cc1C(C)(C)C [Example 199, hydrochloride]")
6.69

Let us examine a further case.
Lookup result for CCOc1nn2c(=N)n(CC(=O)c3cc(OCCCCO)c(OC)c(C(C)(C)C)c3)nc2c(C)c1C [Example 178, hydrochloride] ; measured pIC50: 6.90
